The reported measurements were obtained from the supplement of paper PMC9170038.

Tested on: MS2 coat protein
Assay: apparent KD of MS2 coat protein; higher = weaker reporter binding
Settings: Eterna round: R107; input ligand: tryptophan 2.4 mM
Task for the reader: assign each of the following sequences its reported apparent KD of MS2 coat protein.
Write the value in µM as a bare number.

# input Under MS2 coat protein, report apparent KD of MS2 coat protein for UGUAUGGACUGAAGGAGCGGUUGAUAACAUGAGCAUCAGCCAUGUAAUAAGGCGAAAGCCAACCAGGUAGGUCGCAGUCCAUACU
# output 0.0148

# input Specify apparent KD of MS2 coat protein for UCUUUCUAUGUAGAUACCAGCAUGUUAUCUUUCUUUUGACAUGAGGAUCACCCAUGUAAAUGCCCUUGGCAGCUACAUUUUCUUU [SSTHB #3] , system MS2 coat protein.
# output 0.0197

# input Send back MS2 coat protein apparent KD of MS2 coat protein of GCGGGACUUUCGGCCGCCACUGAGAGAGUCGUGUGAACAUGAGGAUCACCCAUGUAAUAUAUAUACAGGACCGGGAGGGUUGCGC [4.Q] only.
# output 0.0128

# input Write apparent KD of MS2 coat protein of UUAGAUUGCCGAAGGAGCGAGAUAGCCUACAUGAGGAUCACCCAUGUAGAAACGGGCUGAUCUCAGGUAGGUCGCGGCAGGUAGC [Soaquatan] ; system used: MS2 coat protein
# output 0.0249

# input Tell me its apparent KD of MS2 coat protein on MS2 coat protein: AUACACCUCGUCCAGGCAAUCUUUAGUGAUACCAGCUAACUCCGUGGCCCUUGGCAGCACAUGAGGAUCACCCAUGUGCGACAUC [Bioninen]
# output 0.0116

# input State apparent KD of MS2 coat protein (MS2 coat protein) of GGGCCUAUAAGCAGGCCCACAGCGGGUGAUACCAGCAAUAAAACUUGCCCUUGGCAGCACACAGCUACAUGAGGAUCACCCAUGU [Beator] .
# output 0.0624

# input Look up and report measured apparent KD of MS2 coat protein (MS2 coat protein) for the following sequence: UGGUACAUGGCGGCCGCCACUUCACGUAAAAUAAAAGCGUGAGGAUCACCCAUGCAAUAAGUUGGGAGGACCGGGUCAUGUACCU
# output 0.244

# input Output reported apparent KD of MS2 coat protein of the sequence UCCAUCGGCGGAAGCCGAUGGUUUACAGAAGGAGCGUGGAUUAACACAGGUAGGUCGCUGGACAUGAGGAUCACCCAUGUGAUAG [SSAA #6] on MS2 coat protein.
# output 0.055

# input Provide apparent KD of MS2 coat protein, system MS2 coat protein, entry AGCCCUGUGCUAGAUACCAGCUACAUGAGGAUCACCCAUGUGCGUCAAGACUGACUGUGUAGCCCUUGGCAGCUACUCGCAUGUA [Exclusion - Theophylline B (Freestyle 4)]
# output 0.0125

# input Report value: apparent KD of MS2 coat protein, system: MS2 coat protein, sequence: UGGUGUAGGGUAAAUAGGAUUAGUACAGAAGGAGCGCGAAUAAACGCAGGUAGGUCGCUGGAAUACAUGAGGAUCACCCAUGUUC [Same State Arginine A GF 25]
# output 0.026

# input Name the recorded apparent KD of MS2 coat protein of CGCAACCCACAUGAGGAUCACCCAUGUGAAGGAGCGGCGAAUAAGCCAGGUAGGUCGCGCAUGAAUAAAUCAUGUAGGAAGCUAA [XArg-A 8 V1] , assay system MS2 coat protein.
# output 0.00979

# input Report its apparent KD of MS2 coat protein with MS2 coat protein as the test system: AUAACAUGAGGAUCACCCAUGUAAGCAGAUACCAGCUAGGAAACUAGCCCUUGGCAGCUGCAAGGUGAUCCUAAUGCAGCUGCAA [(M1)-(M2)-(T1)-(T2)-(M)'-(T)'_Design3]
# output 0.158
